Target: Prostaglandin E2 receptor EP2 subtype (Homo sapiens) (UniProt P43116)
Sequence (P43116 whole entry, looked up): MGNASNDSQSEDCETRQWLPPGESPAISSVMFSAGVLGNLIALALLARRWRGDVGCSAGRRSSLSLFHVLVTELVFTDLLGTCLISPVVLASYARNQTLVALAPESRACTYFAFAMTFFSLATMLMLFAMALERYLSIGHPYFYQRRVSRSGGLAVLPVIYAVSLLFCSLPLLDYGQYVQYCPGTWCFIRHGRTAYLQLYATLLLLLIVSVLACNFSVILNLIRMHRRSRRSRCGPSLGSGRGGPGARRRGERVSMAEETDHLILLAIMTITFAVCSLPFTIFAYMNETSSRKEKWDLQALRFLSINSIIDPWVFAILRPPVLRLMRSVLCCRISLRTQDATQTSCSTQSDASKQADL
Test: EP2 receptor modulators, dose response, cell-based, human EP2, PGE2 EC50 shift (AID 1421)
Settings: EP2-expressing cells, PGE2 EC50 shift by compound; measured here: PGE2 EC50 at 6.7 uM compound
# strict inequality: PGE2 EC50 with compound < 1 nM yields True, everything else yields False

Some entries whose results are on file:
>  <Compound>
COCC(=O)N(C)c1nnc(-c2cnc(C)cn2)s1

>  <Group>
False

$$$$
>  <Compound>
COc1ccccc1-c1nnc2sc(-c3cc4ccccc4o3)nn12

>  <Group>
False

$$$$
>  <Compound>
Cc1ccc2nc(N3CCC(C(=O)O)CC3)nc(-c3ccccc3)c2c1

>  <Group>
False

$$$$
>  <Compound>
c1ccn(-c2ncnc3sc4c(c23)CCCC4)c1

>  <Group>
False

$$$$
>  <Compound>
CCN(CCO)c1ncnc2c1sc1nc(C(C)C)c3c(c12)CC(C)(C)OC3

>  <Group>
True

$$$$
>  <Compound>
O=c1cc(N2CCCCC2)c(-c2ccccc2)nn1Cc1c(Cl)cccc1Cl

>  <Group>
True

$$$$
>  <Compound>
CCCC1=C(C(=O)OCC)C(c2cccs2)C(C#N)=C(N)O1 (stereo unspecified)

>  <Group>
True

$$$$
>  <Compound>
Cc1ccc(C(=O)OCC(=O)Nc2ccccc2Sc2ccccc2)cc1C

>  <Group>
True

$$$$

Does O=C(CNCc1ccccc1Cl)Nc1ccccc1N1CCCCC1 have PGE2 EC50 with compound strictly under 1 nM?
True

Try this compound next: Cc1cc(Oc2ccccc2F)nc(NCc2ccccc2)n1
False
